Known BP increase of a selection of compounds
system: Rattus norvegicus; experiment: In vivo agonist angiotensin II like activity was measured in rat blood pressure increase by a 1 ug iv injection; type: functional
Non-standard residues stand in square brackets, D forms with d. Residues, ends and D or L forms follow the SMILES beside them. Sar = CNCC(=O)O

CC[C@H](C)[C@H](NC(=O)[C@@H]1CCCN1C(=O)[C@H](Cc1c[nH]cn1)NC(=O)[C@@H](NC(=O)[C@H](Cc1ccc(O)cc1)NC(=O)[C@@H](NC(=O)[C@@H](C)NC)C(C)C)[C@@H](C)CC)C(=O)O
10 mmHg

State its BP increase: CC[C@H](C)[C@H](NC(=O)[C@@H]1CCCN1C(=O)[C@H](Cc1ccccc1)NC(=O)[C@@H](NC(=O)[C@H](Cc1ccc(O)cc1)NC(=O)[C@@H](NC(=O)[C@H](CCCN=C(N)N)NC(=O)CNC)C(C)C)[C@@H](C)CC)C(=O)O (H-[Sar]RVYIFPI-OH)
10 mmHg

Supply BP increase value. Item: "CC[C@H](C)[C@H](NC(=O)[C@@H]1CCCN1C(=O)[C@H](Cc1c[nH]cn1)NC(=O)[C@@H](NC(=O)[C@H](Cc1ccc(O)cc1)NC(=O)[C@@H](NC(=O)[C@H](CCCNC(N)=O)NC(=O)CNC)C(C)C)[C@@H](C)CC)C(=O)O"
25 mmHg

Dear colleague, please send me the reported BP increase for "CC[C@H](C)[C@H](NC(=O)[C@@H]1CCCN1C(=O)[C@H](Cc1c[nH]cn1)NC(=O)[C@@H](NC(=O)[C@H](Cc1ccc(O)cc1)NC(=O)[C@@H](NC(=O)[C@@H](N)CCCN=C(N)N)C(C)C)[C@@H](C)CC)C(=O)O" when you can.
5 mmHg
